Tested on: MCF7
Experiment: Antiproliferative activity against human MCF7 cells assessed as reduction in cell viability after 72 hrs by MTT assay
Assay type: functional, cell-based
Conditions: MCF7, 72 h
READOUT KIND: IC50

> print(dat)
                               entry.smiles  readout.kind  observed.measurement
1  Cc1ccc([P+](CCC(=O)Nc2ccc3c(c2)B(O)OC3)(c2ccc(C)cc2)c2ccc(C)cc2)cc1          IC50                 46 µM
2  O=C(CC[P+](c1ccccc1)(c1ccccc1)C1CCCCC1)Nc1ccc2c(c1)B(O)OC2          IC50              > 100 µM
3  COc1ccc([P+](CCC(=O)Nc2ccc3c(c2)B(O)OC3)(c2ccc(OC)cc2)c2ccc(OC)cc2)cc1          IC50              > 100 µM
4  O=C(CC[P+](c1ccccc1)(c1ccccc1)c1ccccc1)Nc1ccc2c(c1)B(O)OC2          IC50              > 100 µM
5              O=C(CCBr)Nc1ccc2c(c1)B(O)OC2          IC50              > 100 µM
6  O=C(CC[P+](c1ccc(F)cc1)(c1ccc(F)cc1)c1ccc(F)cc1)Nc1ccc2c(c1)B(O)OC2          IC50              > 100 µM
